All values here come from patent US20190233494A1.

Target: T1, RXFP1 receptor (endogenous, on OVCAR5 cells) (UniProt Q9HBX9 1-757, limits assumed)
T1 sequence (looked up): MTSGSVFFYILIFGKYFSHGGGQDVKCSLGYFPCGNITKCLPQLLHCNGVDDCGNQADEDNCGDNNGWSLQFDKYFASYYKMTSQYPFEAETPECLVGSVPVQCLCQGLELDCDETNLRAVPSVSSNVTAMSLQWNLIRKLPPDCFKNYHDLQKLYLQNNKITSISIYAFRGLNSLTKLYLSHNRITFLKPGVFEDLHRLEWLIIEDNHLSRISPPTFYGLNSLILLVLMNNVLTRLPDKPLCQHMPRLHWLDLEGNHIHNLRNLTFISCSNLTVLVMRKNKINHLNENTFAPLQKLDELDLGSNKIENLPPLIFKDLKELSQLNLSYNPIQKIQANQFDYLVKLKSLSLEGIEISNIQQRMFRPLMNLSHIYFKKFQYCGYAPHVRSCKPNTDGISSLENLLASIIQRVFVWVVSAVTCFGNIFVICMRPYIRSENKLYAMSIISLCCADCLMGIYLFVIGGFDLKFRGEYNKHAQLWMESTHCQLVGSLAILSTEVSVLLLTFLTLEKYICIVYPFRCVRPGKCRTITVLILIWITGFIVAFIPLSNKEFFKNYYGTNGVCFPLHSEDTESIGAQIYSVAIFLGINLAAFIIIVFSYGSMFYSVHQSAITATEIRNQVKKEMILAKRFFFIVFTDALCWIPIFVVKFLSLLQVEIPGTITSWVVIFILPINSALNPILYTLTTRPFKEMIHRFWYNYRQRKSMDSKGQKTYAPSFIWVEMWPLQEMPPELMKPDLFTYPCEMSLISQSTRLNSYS
Experiment: cell-based or functional assay
Starred links: 1 amine or outer side, 2 acyl side, 3 side chain; linkers in the order of their positions; H or OH if unused. Non-standard residues stand in square brackets, D forms with d. Groups on a side chain read outwards from the residue. *: point of attachment. TTDS = 4-[3-[2-[2-(3-aminopropoxy)ethoxy]ethoxy]propylamino]-4-oxo-butanoyl; γGlu = O=C(O)[C@H](CCC(=O)[*:2])N[*:1]; Palmitoyl = CCCCCCCCCCCCCCCC(=O)*; αMeK = C[C@](N)(CCCCN)C(=O)O; Aib = CC(C)(N)C(=O)O
measured attribute: EMax, OVCAR 5 cells (cAMP) (%)
Expressed in %, but write only the number.

// solved cases for EMax, OVCAR 5 cells (cAMP) follow
Challenge: // returns reported EMax, OVCAR 5 cells (cAMP) for input LEGREKVRAXIXXEGXSTFSXRAX (Ac-L-E-G-R-E-K-V-R-A-K(Ac)-I-Aib-Aib-E-G-K(PEG2DGA-PEG2DGA-PEG2DGA-gE-gE-gE-Stea)-S-T-F-S-Mly-R-A-K(Ac)-NH2) [peptide of SEQ ID NO: 32]
Response given: 97

Challenge: // returns reported EMax, OVCAR 5 cells (cAMP) for input Ac-LEGREKVRAK(Ac)I[Aib][Aib]EGK([TTDS-TTDS-TTDS-γGlu-γGlu-γGlu-Palmitoyl])STF[dS]KRAK(Ac)-NH2 [peptide of SEQ ID NO: 14]
Response given: 90

Challenge: // returns reported EMax, OVCAR 5 cells (cAMP) for input Ac-LEGRERVRAK(Ac)I[Aib][Aib]EGK([TTDS-TTDS-TTDS-TTDS-γGlu-γGlu-γGlu-Palmitoyl])STFS[Aib]RRK(Ac)-NH2 [peptide of SEQ ID NO: 77]
Response given: 98

---
Challenge: // returns reported EMax, OVCAR 5 cells (cAMP) for input Ac-[Aib]EGREKVRAK(Ac)I[Aib]IEGK([TTDS-TTDS-TTDS-γGlu-γGlu-γGlu-Palmitoyl])STFS[αMeK]RAK(Ac)-NH2 [peptide of SEQ ID NO: 86]
Response given: 95

Challenge: // returns reported EMax, OVCAR 5 cells (cAMP) for input Ac-LEGREKVRAK(Ac)I[Aib][Aib]EGK([TTDS-TTDS-TTDS-γGlu-γGlu-γGlu-Palmitoyl])STF[Aib]RRAK(Ac)-NH2 [peptide of SEQ ID NO: 72]
Response given: 91

Challenge: // returns reported EMax, OVCAR 5 cells (cAMP) for input Ac-LEGREKVRAK(Ac)I[Aib][Aib]EGK([TTDS-TTDS-γGlu-γGlu-γGlu-γGlu-Palmitoyl])STFS[αMeK]RAK(Ac)-NH2 [peptide of SEQ ID NO: 10]
Response given: 95
